The measured values listed here are drawn from the supplement of paper PMC9170038.

Reported apparent KD of K4 kissing-loop reporter values for the following sequences.
# System: K4 kissing-loop RNA reporter;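 also: bound reporter read as fluorescence of individual clusters on recovered sequencing chips by microscopy, with normalized cluster intensities fitted with a binding model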
# testDescription: apparent KD of K4 kissing-loop reporter; higher = weaker reporter binding
# runParameters: Eterna round: R107; input ligand: tryptophan 2.4 mM
Quick note: give the figure in µM, leave out the unit.

Below are worked cases with known answers.
itemSequence	testedOn	apparent KD of K4 kissing-loop reporter (µM)
CGUUUAUAGCAGGAUACCAGUACCCAUUAUGUACGUUUAUAGUAGAGUGAUGUUCUAAAGUACCCUUGGCAGCUUCCUGUGACCC [ExTheophylB.Aa]	K4 kissing-loop RNA reporter	0.145
GGUAGCAUGGCGGCCGCCACUUAAUCACUCCAGGAUGAGGAAUAUAAGCAGUGAUGUUGCUAAGUAAGGACCGGGCCAUGCUACC	K4 kissing-loop RNA reporter	0.201
GGGUUUGACGGAGGAUAUGCACUGAGGAGGAGAAUAUAGUGAUGUUAUAUAAGAGGAAGGAGAAGAGUAGAAGGCCGUUGGGUUU [SSFMNB.L]	K4 kissing-loop RNA reporter	0.104
AAGGACGGGACUUCCUCGCCGGAUAGAGAUACCAGCCCAGCAAUGGGCCCUUGGCAGCUCACUGACCUCAGUGAUGUUGAGGUUC [Arange]	K4 kissing-loop RNA reporter	0.21

Request: Reported apparent KD of K4 kissing-loop reporter for AGCGACUCUUCGGAGUCGCGGCUAAGGGAUACCAGUGAUGUUGGUCACCCUUGGCAGCCCAGAAGCCAAGCCACCAAAGGUGGCA [Omei KL Theo A Exc A v5] : what is it?
Response: 0.113

Request: Moving on to CUUGAUGGAAACAUCGAGUAUUUCACUGAUACCAGUAUCGAUAGAUACCCUUGGCAGCAGGAUCAGUGUUUACGAGUGAUGUUCG [Ex Theophylline A K4 9]
Response: 0.376

Request: Moving on to UGUACCGAGUCAGGAUAUGUCGUCGAAAGACGAAUCCUAGUGAUGUUAGGGAUCUGCGAAAGCAGUGCAGAAGGGACUUGGUACU [FmnBS 26 U20+G67]
Response: 0.207

Request: Moving on to AUGCCUCUGGCUGAUACCAGUGAUGCAGGGUAUGAGACAGGGAGUGAUGUUCCCUGCAGCCACCCUUGGCAGCAGUUUAAGUUUG [Exclusion Theophylline B GF 20]
Response: 0.168

Request: Moving on to UGGCGAGUGAUGUUCGUUGUUGUUGUGUGUCGAGGACCGGUACGGCCGCCACUCGAGUUGGUUGUUGUUGUUGCUGUUGUUGCUG [#04 K4 Tryptophan A Same State]
Response: 0.0876

Request: Moving on to CGCAAAUCGUCGGCCGCCACUGCAUUUGAACGCUAAUUGUCUCUGCGCGGAGUGAUGUUCUGUGCCAGGACCGGGACGGAUUUCG [theeternabot_exclusion_KL_Trp_B_21]
Response: 0.146

Request: Moving on to GGUAGCAUGGCGGCCGCCACUCUUCAUUAGUGAUGUUAAUGCCGAGUGCGCUAACUCCGCCAGGAGAGGACCGGGCCAUGCUACC
Response: 0.185
